Biological target: Jak2 (UniProt O60674)
Sequence (O60674 whole entry, looked up): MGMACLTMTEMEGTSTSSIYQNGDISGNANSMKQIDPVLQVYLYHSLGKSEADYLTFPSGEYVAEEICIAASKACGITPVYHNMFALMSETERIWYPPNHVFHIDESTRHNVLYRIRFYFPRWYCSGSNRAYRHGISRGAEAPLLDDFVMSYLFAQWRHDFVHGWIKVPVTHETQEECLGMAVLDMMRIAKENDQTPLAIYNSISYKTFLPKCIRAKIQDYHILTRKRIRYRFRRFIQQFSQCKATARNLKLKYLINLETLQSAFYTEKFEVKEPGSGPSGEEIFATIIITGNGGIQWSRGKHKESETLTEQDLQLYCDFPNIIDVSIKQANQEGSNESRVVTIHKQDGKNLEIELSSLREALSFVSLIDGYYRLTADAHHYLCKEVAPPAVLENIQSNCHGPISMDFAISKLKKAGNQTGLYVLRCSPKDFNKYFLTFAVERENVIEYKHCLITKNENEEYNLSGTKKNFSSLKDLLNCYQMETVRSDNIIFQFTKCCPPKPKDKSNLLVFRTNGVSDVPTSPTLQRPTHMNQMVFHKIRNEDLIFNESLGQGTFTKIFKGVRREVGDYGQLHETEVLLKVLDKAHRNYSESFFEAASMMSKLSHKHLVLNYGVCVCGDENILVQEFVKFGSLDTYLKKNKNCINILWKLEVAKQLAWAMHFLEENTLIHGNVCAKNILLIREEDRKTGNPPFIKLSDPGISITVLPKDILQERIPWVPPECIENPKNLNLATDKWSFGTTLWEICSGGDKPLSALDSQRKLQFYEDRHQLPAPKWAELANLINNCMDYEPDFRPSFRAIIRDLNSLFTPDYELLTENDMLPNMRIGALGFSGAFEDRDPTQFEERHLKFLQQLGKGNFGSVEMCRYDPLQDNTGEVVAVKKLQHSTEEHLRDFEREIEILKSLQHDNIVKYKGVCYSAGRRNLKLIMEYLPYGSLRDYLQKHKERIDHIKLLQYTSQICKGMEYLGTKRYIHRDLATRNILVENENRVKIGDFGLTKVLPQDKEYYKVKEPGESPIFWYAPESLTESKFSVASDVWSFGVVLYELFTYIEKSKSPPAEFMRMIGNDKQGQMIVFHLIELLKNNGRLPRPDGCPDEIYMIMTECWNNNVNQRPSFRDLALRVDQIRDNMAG
Experiment: phosphorylation enrichment, bacterial display (enrichment ratio); higher = better substrate or ligand; peptides without Tyr show the background;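 also: 11-residue human phosphosite peptides and single-mutation variants displayed on the E. coli surface, counted by deep sequencing, each peptide's frequency after selection divided by its frequency in the unselected input library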;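 also: frequency after pTyr selection over input frequency; kinase dosed for 20-30% of maximal phosphorylation in three min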
Assign class by phosphorylation enrichment: not lower than 1 means Criterion met; lower than 1 means Criterion not met.

sequence_record="KDAGDYKCKAK [LRIT3_Y326]" discrete_label="Criterion not met"
sequence_record="KPGLKYVTYGN [GALNTL5_Y404]" discrete_label="Criterion not met"
sequence_record="TEYIQYMRRKN [MAX_Y73]" discrete_label="Criterion not met"
sequence_record="SVTCTYSPTLN [TP53_Y126_A129T]" discrete_label="Criterion met"
sequence_record="AFDNLYYWDQD [ERBB2_Y1221]" discrete_label="Criterion met"
sequence_record="AEMKRYSESSS [RAI14_Y869_A870S]" discrete_label="Criterion not met"
sequence_record="QYQEKYKQMEQ [HCN4_Y531_V534M]" discrete_label="Criterion not met"
sequence_record="LLVVLNKYRCY [PSEN1_Y154_Y154N]" discrete_label="Criterion met"
sequence_record="NHYKICNLCAE [PTEN_Y68_Y68C]" discrete_label="Criterion not met"
sequence_record="EDGRLYAVKRS [PKMYT1_Y136]" discrete_label="Criterion not met"
sequence_record="LVMFIYAIFWM [SCN1A_Y1684_G1688W]" discrete_label="Criterion not met"
sequence_record="YSPCDYQPCLA [TNS1_Y798_Y796C]" discrete_label="Criterion met"
sequence_record="LIDSSYLTPTA [GREB1L_Y1063_R1066P]" discrete_label="Criterion not met"
sequence_record="CSEEMYCLMLQ [RET_Y981_R982C]" discrete_label="Criterion met"
sequence_record="AFRRGYFDEEM [PLEC_Y2971_YF]" discrete_label="Criterion met"
sequence_record="MARDISRASYY [ALK_Y1278_Y1278S]" discrete_label="Criterion not met"
sequence_record="EGTGHYLCNAC [GATA5_Y208_D203E]" discrete_label="Criterion not met"
sequence_record="SGDITYGQFAQ [PLCG1_Y210]" discrete_label="Criterion not met"
sequence_record="MCVKSYTIHFS [F5_Y2153_Y2149C_YF]" discrete_label="Criterion met"
sequence_record="NPQKPYFIRLF [WAS_Y83_S82P_YF]" discrete_label="Criterion not met"
sequence_record="FKIFLYTLNDN [FN1_Y1975_YF]" discrete_label="Criterion met"
sequence_record="LFNQDYPIHSV [GATM_Y227_YF]" discrete_label="Criterion not met"
sequence_record="VDASYCGGRGV [ANTXR2_Y381_Y381C]" discrete_label="Criterion not met"
sequence_record="NNFGNYNNQSS [HNRNPA1_Y318_D314N]" discrete_label="Criterion not met"
sequence_record="NQLNDYIFSFD [RARS1_Y516_R512Q]" discrete_label="Criterion met"
sequence_record="FCRHNYGVVES [HLA-DRB1_Y112_YF]" discrete_label="Criterion not met"
sequence_record="AEPPDYSPVTQ [ADGRG2_Y285_H290Q]" discrete_label="Criterion not met"
sequence_record="VIKDKYPKAHY [APTX_Y209_R213H]" discrete_label="Criterion not met"
sequence_record="QNTGVYFDLFG [PTPN11_Y62_D61V_YF]" discrete_label="Criterion met"
sequence_record="CTTIHYNYMRN [TP53_Y234_C238R]" discrete_label="Criterion not met"
sequence_record="ADEEEYEIIAA [FEStide_E_2014]" discrete_label="Criterion met"
sequence_record="LRRFIYRPPDQ [OTOF_Y1231_R1236Q]" discrete_label="Criterion not met"
sequence_record="EFTPLYPMLFG [SCLY_Y280]" discrete_label="Criterion met"
sequence_record="QLPRGYISILV [BAG3_Y205_P209L]" discrete_label="Criterion met"
sequence_record="CSTIHYNFMCN [TP53_Y234_T230S_YF]" discrete_label="Criterion not met"
sequence_record="REDVFYTSKLW [AKR1C2_Y81_I79V]" discrete_label="Criterion met"
sequence_record="DPTNTYARPAE [SGMS2_Y24]" discrete_label="Criterion not met"
sequence_record="HRFAAYFQQGD [GPI_Y351]" discrete_label="Criterion met"
sequence_record="FSAPNCCFRCG [PPP2CA_Y265_Y265C_YF]" discrete_label="Criterion not met"
sequence_record="TLRKTYGEMAD [ALB_Y108_E106K]" discrete_label="Criterion not met"
sequence_record="LKVDVYRRSHK [FUT3_Y222_G223R]" discrete_label="Criterion met"
sequence_record="DFPIGYPSYLA [TBCK_Y153]" discrete_label="Criterion not met"
sequence_record="RRYLYYYSYLL [PTEN_Y177_V175L]" discrete_label="Criterion met"

These entries and their values trace back to the supplement of paper PMC10065799.
